# procedure-details: modulators of HCV replicon luciferase signal, primary screen, HCV replication inhibitor project, Huh7 cells, luciferase reporter (AID 1109);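 note: huh7 hepatoma cells harbouring a luciferase neomycin HCV replicon reporter; luciferase luminescence as measure of HCV replicon replication; test concentration not given here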
# reported-conditions: 48 h, higher = more signal
Please mark class 1 if the recorded z-score is equal to or greater than -0.7, and class 0 if it falls below.

Worked examples follow.
chemical-structure	discrete-label
CC(C)C(=C=CC[C@@H](O)c1cccc(OCCO)c1)C[C@@H](O)COCc1ccccc1	class 1
COCCOC(=O)N1C(=O)[C@@]2(c3ccccc31)[C@H](c1ccc(OCCO)cc1)N1[C@H](c3ccccc3)[C@H](c3ccccc3)OC(=O)[C@H]1[C@@H]2C(=O)N1CCCCCCC1	class 0
[N-]=[N+]=NCc1ccccc1C[C@]1(C(=O)N2CCOCC2)COC(c2ccc(OCCCO)cc2)=N1	class 0

Ask: Entry Cc1cccc([C@H]2C[C@H]3C(I)=C[C@@H]2C(=O)[C@]32CO2)c1 : is its z-score no less than -0.7?
Result: class 0

Ask: Entry C=CC[C@H](OC(=O)Nc1ccc(SC)cc1)c1ccc(OCCO)cc1 : is its z-score no less than -0.7?
Result: class 1

Ask: Entry [N-]=[N+]=NCc1ccccc1[C@@H]1OC(c2ccc(OCCCO)cc2)=N[C@]1(Cc1ccccc1N=[N+]=[N-])C(=O)NCCN1CCOCC1 : is its z-score no less than -0.7?
Result: class 0

###

# procedure-details: basal HepG2 mitochondrial membrane potential changes, profiling panel, cell-based, JC-1 fluorescence, 24 h, 100 nL compound (AID 1167); note: test concentration not given here
# reported-conditions: higher = more signal
measurement-label: z-score
Lab note: write the figure by itself, no unit.

> print(dat)
                                   molecule  measurement.label  measured
1  O=C1C2C=CC(C(O)c3cc(C(F)(F)F)cc(C(F)(F)F)c3)N(Nc3ccccc3F)C2C(=O)N1c1ccccc1 (centres undefined)            z-score     -3.93
2  [N-]=[N+]=Nc1ccccc1C[C@]1(C(=O)O)N=C(c2ccc(OCCCO)cc2)O[C@H]1c1ccccc1            z-score    -0.924
3  COCCOC(=O)N1C(=O)[C@@]2(c3ccccc31)[C@H](c1ccccc1OCCO)N1[C@H](c3ccccc3)[C@H](c3ccccc3)OC(=O)[C@H]1[C@@H]2C(N)=O            z-score     -0.88

Ask: Return reported z-score; argument: CCOC(=O)C[C@H]1[C@H](OC(=O)c2ccc(-c3ccccc3)cc2)[C@@H](NC(=O)Cc2ccc(OC)cc2)c2cc(OCCCO)ccc2N1C(=O)Cc1ccc(OC)cc1
Result: 2.01

###

Reported z-score values for a set of molecules
# tested-target: Luciferin 4-monooxygenase (Photinus pyralis) (UniProt P08659)
# Sequence (P08659 whole entry, looked up): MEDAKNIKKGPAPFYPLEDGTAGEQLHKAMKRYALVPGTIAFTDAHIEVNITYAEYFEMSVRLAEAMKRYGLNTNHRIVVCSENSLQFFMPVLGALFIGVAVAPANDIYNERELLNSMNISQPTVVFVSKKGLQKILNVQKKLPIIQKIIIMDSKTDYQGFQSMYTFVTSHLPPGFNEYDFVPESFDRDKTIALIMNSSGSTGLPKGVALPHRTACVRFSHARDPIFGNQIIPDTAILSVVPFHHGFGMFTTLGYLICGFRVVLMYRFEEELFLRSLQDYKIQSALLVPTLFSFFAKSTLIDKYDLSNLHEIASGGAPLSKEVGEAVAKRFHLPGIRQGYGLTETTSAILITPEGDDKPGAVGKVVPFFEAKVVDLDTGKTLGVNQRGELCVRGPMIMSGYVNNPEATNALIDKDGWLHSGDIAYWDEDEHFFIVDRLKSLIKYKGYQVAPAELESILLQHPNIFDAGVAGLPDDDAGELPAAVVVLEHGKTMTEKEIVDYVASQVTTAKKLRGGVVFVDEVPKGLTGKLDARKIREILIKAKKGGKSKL
# procedure-details: firefly luciferase enzyme inhibitors, primary screen, biochemical, luminescence, purified enzyme, 2006 set (AID 1141);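 note: cell-free assay with purified firefly luciferase at 100 ng per well in PBS; test concentration not given here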
# reported-conditions: SteadyGlo luminescence, 30 min, higher = more signal, called active from +8 up or from −8 down
Lab note: write the figure by itself, no unit.

> print(dat)
                                   molecule  measurement.label  measured
1  CC(C)C[C@@H]1NC(=O)[C@@H]2C[C@H](C(=O)NCCCCCC[N+](C)(C)C)[C@H](c3cccc(OCCO)c3)N2C1=O            z-score     0.184
2  [N-]=[N+]=NCc1ccccc1[C@H]1OC(c2ccc(OCCCO)cc2)=N[C@@]1(Cc1ccccc1)C(=O)NCCN1CCOCC1            z-score     -3.29
3  O=C(CS)NCCCCCNC(=O)[C@@H]1C[C@@H]2C(=O)N[C@@H](Cc3ccccc3)C(=O)N2[C@@H]1c1cccc(OCCO)c1            z-score     -1.97
4  COc1cc(CO)cc(I)c1O[C@H]1C=C(C(=O)NCCO)C[C@@H](NCC2CCCCC2)[C@@H]1O            z-score     0.734
5  CC(C)(C)OC(=O)CC[C@]1(C(=O)N2CCCCC2)COC(c2ccc(OCCCO)cc2)=N1            z-score      -0.3

Ask: Return reported z-score; argument: COc1cc2c(cc1O)C(c1cccs1)N(Cc1sc3ccccc3c1Cl)CC2 (stereo not drawn)
Result: -0.42

Ask: Return reported z-score; argument: C=C[C@@H](OC)[C@H](OC(=O)Nc1ccc(OC)cc1)c1ccc(OC)c(O)c1
Result: -0.737

Ask: Return reported z-score; argument: CCCCC=C[C@@H](NC(=O)c1ccccc1)c1ccccc1
Result: 0.965

###

# Tested on: Fibrinogen (Alexa647-labelled)
# procedure-details: fibrinogen binders on compound microarrays, profiling panel, artefact control for SMM control-protein annotation, biochemical, small-molecule microarray, 635/667 nm fluorescence (AID 1131);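 note: z-score merges 667 nm fluorescence with per-spot signal-to-noise over triplicate slides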
# reported-conditions: fibrinogen-A647 binding fluorescence, higher = more signal
Please mark 1 if the recorded composite z-score is equal to or greater than 0.4, and -1 if it falls below.

Worked examples follow.
compound	discrete-label
COC(=O)C1=CC(CCCO)=CC(C)N(Cc2cccc(OC(F)(F)F)c2)C=C1C(=O)OC (stereo unspecified)	-1
COC(=O)[C@@]1(Cc2ccc(OC)cc2)[C@H]2c3cc(C(=O)N4CCCC4)n(Cc4cc(C)n(C)n4)c3C[C@H]2CN1C(=O)c1ccccc1	1
O=C1OCCC/C=C\[C@H]2OC34C=CCN(c5ccc6ccccc6c5)C(=O)[C@H]3N(CCCO)C(=O)[C@@H]4C12 (stereo partly specified)	-1
O=C1C2C=CC(C(O)c3ccco3)N(Nc3ccccc3)C2C(=O)N1c1ccccc1 (stereo unspecified)	-1
CC(C)C[C@@H]1NC(=O)CNC(=O)[C@@]23C(=O)N[C@@H](Cc4ccccc4)C2[C@H](C)[C@@]2(C)O[C@H]2C3/C=C/C/C=C\CNC1=O (stereo partly specified)	1

Ask: Entry [N-]=[N+]=Nc1ccccc1C[C@]1(C(=O)O)N=C(c2ccc(OCCCO)cc2)O[C@H]1c1ccccc1N=[N+]=[N-] : is its composite z-score no less than 0.4?
Result: 1

Ask: Entry O=C1NC(=O)C2C1C=CC(C(O)c1ccccn1)N2Nc1ccc(Cl)cc1Cl (stereo unspecified) : is its composite z-score no less than 0.4?
Result: 1

Ask: Entry COCCOC(=O)N1C(=O)[C@@]2(c3cc(C#CCC(C(=O)OC)C(=O)OC)ccc31)[C@H](C(=O)NC[C@H](O)c1ccccc1)[C@H]1C(=O)O[C@H](c3ccccc3)[C@H](c3ccccc3)N1[C@@H]2c1ccc(OCCO)cc1 : is its composite z-score no less than 0.4?
Result: 1

Ask: Entry O=C(NCC(O)CO)[C@@]1(CCS(=O)(=O)c2ccccc2)COC(c2ccc(OCCCO)cc2)=N1 (stereo partly specified) : is its composite z-score no less than 0.4?
Result: 1

Ask: Entry C=C(CCCC)C(=O)CC[C@H](OC(C)=O)c1ccc(OCCO)cc1 : is its composite z-score no less than 0.4?
Result: 1

Ask: Entry Cc1ccc(S[C@]2(C(=O)NCc3ccccc3)CC(=O)N(Cc3cc(C(F)(F)F)cc(C(F)(F)F)c3)[C@@H]2c2ccc(CO)cc2I)cc1 : is its composite z-score no less than 0.4?
Result: -1

Ask: Entry COCC(=C=CC[C@@H](O)c1ccc(OCCO)cc1)CCO : is its composite z-score no less than 0.4?
Result: -1

###

# Tested on: Plasmodium falciparum Sir2 (PF13_0152, Sir2A)
# procedure-details: pfSir2 binders on small-molecule microarrays, primary screen, biochemical, small-molecule microarray, 635 nm fluorescence (AID 1098);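 note: score merges spot fluorescence intensity with its signal-to-noise ratio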
# reported-conditions: small-molecule microarray binding, fluorescence 635 nm; higher = more signal
measurement-label: composite z-score
Lab note: write the figure by itself, no unit.

Known results for compounds:
compound	composite z-score
O=C1C[C@@](C(=O)NCC(F)(F)F)(c2ccc([N+](=O)[O-])cc2)[C@@H](c2ccc(CO)cc2)N1CC12CC3CC(CC(C3)C1)C2	1.4
COCCOC(=O)N1C(=O)[C@@]2(c3cc(C#CCC(C(=O)OC)C(=O)OC)ccc31)[C@H](c1ccc(O)cc1)N1[C@H](c3ccccc3)[C@H](c3ccccc3)OC(=O)[C@H]1[C@@H]2C(=O)NC[C@H](O)c1ccccc1	0.542

# evaluate next
Ask: Please tell me: composite z-score of O=C1[C@@H]2[C@@H](CC(COc3ccccc3)=C3[C@@H](CCc4ccccc4)OB(O)C[C@@H]32)C(=O)N1Cc1ccccc1 , system Plasmodium falciparum Sir2 (PF13_0152, Sir2A)?
Result: 0.393

###

# System: Inhibin beta A chain (activin A)
# procedure-details: INHBA (activin A) binders on microarrays, primary screen, biochemical, small-molecule microarray, 635 nm fluorescence scan (AID 1107);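 note: mouse activin A protein probed at 4.33 µg/mL on printed slides; score merges bound-protein fluorescence near 667 nm with spot signal-to-noise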
# reported-conditions: small-molecule microarray binding, higher = more signal
Reported composite z-score values for a set of molecules
Lab note: write the figure by itself, no unit.

molecule	tested-target	composite z-score
CCN(CC)c1ccc(N2CC=CC34O[C@@H]5C=CCCOC(=O)C5[C@H]3C(=O)N(CCO)[C@@H]4C2=O)cc1 (some centres not stated)	Inhibin beta A chain (activin A)	-0.589
CC(CO)N1C(=O)[C@@H]2[C@H]3C(=O)OCC=C[C@H]3OC23C=CCN(c2ccc(Cl)cc2)C(=O)[C@@H]13 (some centres not stated)	Inhibin beta A chain (activin A)	-3.56
CCOC(=O)C1=CC[C@@H](c2ccccc2)N(S(=O)(=O)c2ccc(C)cc2)[C@H]1c1cccc(OC)c1	Inhibin beta A chain (activin A)	0.949
CCCCCN1CC=CC23O[C@@H]4C=CCOC(=O)[C@@H]4[C@H]2C(=O)N(CCO)[C@@H]3C1=O (some centres not stated)	Inhibin beta A chain (activin A)	0.393
C=CCN1C(=O)[C@@]2(O[C@@H](CCO)[C@H]([Si](C)(C)c3ccc(OC)cc3)[C@H]2C)c2cc(N3CCOC3=O)ccc21	Inhibin beta A chain (activin A)	-0.171

Ask: Return reported composite z-score; argument: COCCOC(=O)N1C(=O)[C@@]2(c3cc(C#CCNC(N)=O)ccc31)[C@H](c1ccc(O)cc1)N1[C@H](c3ccccc3)[C@H](c3ccccc3)OC(=O)[C@H]1[C@@H]2C(N)=O
Result: -1.08

Ask: Return reported composite z-score; argument: CC(C)[Si]1(C(C)C)OCc2cc(-c3ccc(-c4ccc(Cl)c(Cl)c4)o3)nc(CCc3ccccc3)c21
Result: 0.536
